Test system: OVCAR8
Assay: 3H thymidine proliferation assay, OVCAR8
Assay type: cell-based, human
Conditions: Homo sapiens, OVCAR-8, read-out: EC50, OVCAR8, 3H thymidine method, 72 h incubation
endpoint.label: EC50 (nM)
The figure you give is taken to be in nM; do not add the unit.

Here's what some known entries look like.
[[record]]
compound = "CC[C@H](C)[C@H](NC(=O)[C@H]1CCCCN1C)C(=O)N(C)[C@H](C[C@@H](OC)c1nc(C(=O)N[C@@H](C)C(=O)N[C@@H](Cc2ccccc2)C(=O)OC)cs1)C(C)C [Compound 26a]"
tested_system = "OVCAR8"
endpoint_label = "EC50"
test_value = 100

[[record]]
compound = "CC[C@H](C)[C@H](NC(=O)[C@H]1CCCCN1C)C(=O)N(C)[C@H](C[C@@H](OC)c1nc(C(=O)N[C@H](CCC(=O)OC)Cc2ccccc2)cs1)C(C)C [Compound 26]"
tested_system = "OVCAR8"
endpoint_label = "EC50"
test_value = 201

[[record]]
compound = "CC[C@H](C)[C@H](NC(=O)[C@H]1CCCCN1C)C(=O)N(C)[C@H](C[C@@H](OC)c1nc(C(=O)NC(Cc2ccccc2)C[C@H](C)C(=O)O)cs1)C(C)C (some centres unmarked) [Compound 15]"
tested_system = "OVCAR8"
endpoint_label = "EC50"
test_value = 423


Quick note, EC50 for CC[C@H](C)[C@H](NC(=O)[C@H]1CCCCN1C)C(=O)N(C)[C@H](C[C@@H](OC)c1nc(C(=O)N[C@H](CC(=O)OC)Cc2ccccc2)cs1)C(C)C [Compound 25] landed at 946

// EC50 lookup, compound = CCCC(NC(=O)c1csc([C@@H](C[C@H](C(C)C)N(C)C(=O)[C@@H](NC(=O)[C@H]2CCCCN2C)[C@@H](C)CC)OC)n1)C(=O)OC (some centres unmarked) [Compound 17] , result: 2970

In plain terms, CC[C@H](C)[C@H](NC(=O)[C@H]1CCCCN1C)C(=O)N(COC(=O)CC(C)C)[C@H](C[C@@H](OC(C)=O)c1nc(C(=O)N[C@@H](Cc2ccc(N)cc2)CC(C)C(=O)O)cs1)C(C)C (some centres unmarked) [Compound 54] has a documented EC50 of 2.1
